Reference for the values: BindingDB's records for doi:10.7270/Q2028PZ5

molecular target: G-protein coupled receptor 55 (Homo sapiens, UniProt Q9Y2T6); experiment: GPR55 antagonists, SAR follow-up, counter-screen for GPR35 antagonist project, imaging, image-based (AID 2397); settings: inactive by the depositor's call
Sequence (Q9Y2T6 whole entry): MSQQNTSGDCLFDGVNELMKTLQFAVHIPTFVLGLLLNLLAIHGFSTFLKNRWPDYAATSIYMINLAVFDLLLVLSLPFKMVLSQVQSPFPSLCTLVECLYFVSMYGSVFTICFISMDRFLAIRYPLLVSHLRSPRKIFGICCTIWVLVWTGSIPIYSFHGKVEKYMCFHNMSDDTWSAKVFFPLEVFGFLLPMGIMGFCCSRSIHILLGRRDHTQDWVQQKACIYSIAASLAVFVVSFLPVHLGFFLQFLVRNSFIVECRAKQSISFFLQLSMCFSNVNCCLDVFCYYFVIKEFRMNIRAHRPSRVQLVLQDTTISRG
pIC50: −log10 of the molar value.
measurementName: pIC50

smilesstructure=CC(/C=C1\SC(=S)N(CCCC(=O)Nc2ccc(C(=O)O)c(O)c2)C1=O)=C\c1ccccc1 measurementname=pIC50 testvalue=4.66
